- Test system: blackgrass
- ASSAY TEXT: Test B pre/postemergence blackgrass
- Format: in vivo, Alopecurus myosuroides
- CONDITION: Postemergence, Rate 62 g/ha; scale 0 to 10, 0 is no effect, 10 is complete control
MEASURED ATTRIBUTE: Plant response rating, Blackgrass

Sample answers from the record:
> print(dat)
                                   compound  target.system                 measured.attribute  data.value
1  CC(C)N(C(=O)n1oc(=O)n(C(C)C2=NOCC2)c1=O)c1ccc(Cl)cc1 (racemic)     blackgrass  Plant response rating, Blackgrass           4
2  CC(C)N(C(=O)n1oc(=O)n(CC(F)F)c1=O)c1ccc(Cl)cc1     blackgrass  Plant response rating, Blackgrass           3
3  COC1CCC(Cn2c(=O)on(C(=O)N(c3ccc(F)cc3)C(C)C)c2=O)=NO1 (stereo not drawn)     blackgrass  Plant response rating, Blackgrass           0
4  CCOC(Cn1c(=O)on(C(=O)N(c2ccc(Cl)cc2)C(C)C)c1=O)OCC     blackgrass  Plant response rating, Blackgrass           0

Inquiry: What value of Plant response rating, Blackgrass has been recorded for this entry: CC(C)N(C(=O)n1oc(=O)n(CC(=O)C2CCC2)c1=O)c1ccc(F)cc1
Reply text: 0

Inquiry: Param item: CC(C)N(C(=O)n1oc(=O)n(CCN(C)C(=O)c2ccccc2)c1=O)c1ccccc1
Reply text: 0

----------
# Lookup of reported Plant response rating, Redroot pigweed keyed by entry
- System: pigweed
- ASSAY TEXT: Test B pre/postemergence pigweed
- Assay type: in vivo, Amaranthus retroflexus
- CONDITION: Postemergence, Rate 62 g/ha; scale 0 to 10, 0 is no effect, 10 is complete control
Reply briefly: the number, and no unit.

Sample answers from the record:
> print(dat)
                         chemical.structure                      measured.attribute  data.value
1  CC(C)N(C(=O)n1oc(=O)n(CC2=NOCCO2)c1=O)c1ccc(F)cc1F  Plant response rating, Redroot pigweed           7
2  CC(C)N(C(=O)n1oc(=O)n(Cc2nnc(Cl)s2)c1=O)c1ccc(Cl)cc1  Plant response rating, Redroot pigweed           0
3  CC(C)N(C(=O)n1oc(=O)n(CCCC#N)c1=O)c1ccc(F)cc1F  Plant response rating, Redroot pigweed           2
4  CC(C)N(C(=O)n1oc(=O)n(CC(F)F)c1=O)c1ccc(Cl)cc1  Plant response rating, Redroot pigweed           2

Proceed to the following item.
Inquiry: What value of Plant response rating, Redroot pigweed has been recorded for this entry: CC(C)N(C(=O)n1oc(=O)n(CCCCCl)c1=O)c1ccc(F)cc1
Reply text: 3

----------
# Lookup of reported B. signalgrass plant response rating keyed by entry
- Test system: surinam grass
- ASSAY TEXT: Test B pre/postemergence surinam grass
- Assay type: in vivo, Brachiaria decumbens
- CONDITION: Postemergence, Rate 500 g/ha; scale of 0 to 10 where 0 is no effect and 10 is complete control
Reply briefly: the number, and no unit.

> print(dat)
                                   compound  data.value
1  CC[Si](C)(C)Cn1c(=O)on(C(=O)N(c2ccc(F)cc2)C(C)C)c1=O [Compound 459]           0

Inquiry: What value of B. signalgrass plant response rating has been recorded for this entry: CC(C)N(C(=O)n1oc(=O)n(CCC(F)(F)F)c1=O)c1ccc(F)cc1 [Compound 397]
Reply text: 8

Inquiry: Param item: Cc1nc(Cl)sc1C(C)n1c(=O)on(C(=O)N(c2ccccc2)C(C)C)c1=O (stereo not shown) [Compound 407]
Reply text: 0

Inquiry: Param item: CCC=CCn1c(=O)on(C(=O)N(c2ccccc2)C(C)C)c1=O [Compound 454]
Reply text: 2
